Biological target: T1, Recombinant human CTLA4-Fc (human, UniProt P16410 36-161, limits assumed)
T1 construct: Coated on the ELISA plate at 1 ug/mL; also called its antigen; not shown: Fc part
T1 sequence (looked up): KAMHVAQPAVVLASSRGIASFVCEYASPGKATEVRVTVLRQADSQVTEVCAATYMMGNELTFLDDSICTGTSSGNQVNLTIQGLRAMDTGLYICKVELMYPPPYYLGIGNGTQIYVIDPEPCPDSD
Assay: ELISA on plate-coated recombinant human CTLA4-Fc as in Example 3 (FIG. 24A)
Quantity Kind: masking efficiency (EC50 / EC50 of parental TY21580) (fold)
Provide the reading as a plain figure in fold.

Need masking efficiency (EC50 / EC50 of parental TY21580) of TY22776 (antibody, V domains shown, TY22404 with the masking peptide shortened to 16 residues; expressed in mammalian cells; isotype not restated (parent construct IgG1)) VH: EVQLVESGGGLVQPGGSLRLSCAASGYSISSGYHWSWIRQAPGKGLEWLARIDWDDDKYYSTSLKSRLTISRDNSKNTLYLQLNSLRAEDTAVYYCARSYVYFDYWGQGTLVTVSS VL: EVGSSDCVPYYYACAYSGRSAGGGGTPLGLAGSGGSDIQLTQSPSSLSASVGDRVTITCRASQSVRGRFLAWYQQKPGKAPKLLIYDASNRATGIPSRFSGSGSGTDFTLTISSLQPEDFATYYCQQSSSWPPTFGQGTKVEIKR , thanks.
296

Need masking efficiency (EC50 / EC50 of parental TY21580) of TY22775 (antibody, V domains shown, TY22402 with the masking peptide shortened to 16 residues; expressed in mammalian cells; isotype not restated (parent construct IgG1)) VH: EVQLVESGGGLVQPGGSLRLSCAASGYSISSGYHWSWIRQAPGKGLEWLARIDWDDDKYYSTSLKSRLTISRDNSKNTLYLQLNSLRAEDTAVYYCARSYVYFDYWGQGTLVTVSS VL: EVGHSDCDAFYPYCDSSGRSAGGGGTPLGLAGSGGSDIQLTQSPSSLSASVGDRVTITCRASQSVRGRFLAWYQQKPGKAPKLLIYDASNRATGIPSRFSGSGSGTDFTLTISSLQPEDFATYYCQQSSSWPPTFGQGTKVEIKR , thanks.
168

Need masking efficiency (EC50 / EC50 of parental TY21580) of TY22404 (antibody, V domains shown, IgG1 from HEK293F cells; peptide fused to the N-terminus of the light chain of TY21580; also called masking peptide B13197) VH: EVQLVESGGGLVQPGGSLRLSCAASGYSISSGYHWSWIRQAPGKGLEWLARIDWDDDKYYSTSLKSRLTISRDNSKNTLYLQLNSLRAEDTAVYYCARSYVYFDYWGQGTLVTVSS VL: EVGSYPNPSSDCVPYYYACAYSGRSAGGGGSPLGLAGSGGSDIQLTQSPSSLSASVGDRVTITCRASQSVRGRFLAWYQQKPGKAPKLLIYDASNRATGIPSRFSGSGSGTDFTLTISSLQPEDFATYYCQQSSSWPPTFGQGTKVEIKR , thanks.
308

Need masking efficiency (EC50 / EC50 of parental TY21580) of TY22402 (antibody, V domains shown, IgG1 from HEK293F cells; peptide fused to the N-terminus of the light chain of TY21580; also called masking peptide B13180) VH: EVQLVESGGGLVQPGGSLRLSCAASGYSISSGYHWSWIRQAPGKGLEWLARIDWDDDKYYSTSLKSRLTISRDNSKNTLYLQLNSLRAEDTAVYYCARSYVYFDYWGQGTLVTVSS VL: EVGSYIVHHSDCDAFYPYCDSSGRSAGGGGSPLGLAGSGGSDIQLTQSPSSLSASVGDRVTITCRASQSVRGRFLAWYQQKPGKAPKLLIYDASNRATGIPSRFSGSGSGTDFTLTISSLQPEDFATYYCQQSSSWPPTFGQGTKVEIKR , thanks.
243
